Below: a set of entries, each annotated with reported TGI.
- System: SK-OV-3 ovarian
- measurement.description: NCI tumour cell line growth inhibition, 48 h
value.type: TGI

[
  {
    "compound": "CCCc1n[nH]c(=O)n1N1C(=O)C=CC1=O",
    "value.type": "TGI",
    "value": "> 100 µM"
  },
  {
    "compound": "CC1(C)Oc2ccc3c(=O)cc(-c4cccs4)oc3c2C1C(=O)O (stereo not given)",
    "value.type": "TGI",
    "value": "> 100 µM"
  },
  {
    "compound": "C[N+](C)(C)CCOC(=O)/C=C/c1cnc[nH]1",
    "value.type": "TGI",
    "value": "> 500 µM"
  },
  {
    "compound": "CC(C(=O)NCCNC(=O)CCC(=O)N(C)O)C(=O)NCCNC(=O)CCC(=O)N(C)O",
    "value.type": "TGI",
    "value": "> 100 µM"
  },
  {
    "compound": "COc1cc(OCc2nc3cc(C(F)(F)F)ccc3nc2-c2ccccc2)cc(OC)c1OC",
    "value.type": "TGI",
    "value": "> 100 µM"
  },
  {
    "compound": "O=C(N/N=C\\c1cccs1)c1ccncc1",
    "value.type": "TGI",
    "value": "> 100 µM"
  },
  {
    "compound": "O=C(/C=C/c1ccc2c(c1)OCO2)NCCc1ccco1",
    "value.type": "TGI",
    "value": "> 100 µM"
  },
  {
    "compound": "COC1(OC)C2(Cl)C(Cl)=C(Cl)C1(Cl)C1c3ccc(C(C)=O)c4cccc(c34)C12 (stereo not given)",
    "value.type": "TGI",
    "value": "> 100 µM"
  },
  {
    "compound": "CNC(=O)c1cc2nc3ccccc3c(=O)n2c2ccccc12",
    "value.type": "TGI",
    "value": "> 10 µM"
  },
  {
    "compound": "Cc1nc2ccccc2c(=O)n1NC(=O)c1ccccc1[N+](=O)[O-]",
    "value.type": "TGI",
    "value": "> 100 µM"
  },
  {
    "compound": "COC(=O)c1ccccc1NC(=S)NN(C)C",
    "value.type": "TGI",
    "value": "> 100 µM"
  },
  {
    "compound": "COc1ccc(C2S/C(=C\\c3cccc(OC)c3)C(=O)N2NC(=O)Cc2ccccc2)cc1 (stereo not given)",
    "value.type": "TGI",
    "value": "> 100 µM"
  },
  {
    "compound": "CSC(=Nc1ccccc1Cl)NC(=O)c1ccc(Br)cc1",
    "value.type": "TGI",
    "value": "> 100 µM"
  },
  {
    "compound": "O=C(O)CN1CCCC(Cc2c[nH]c3ccccc23)C1 (stereo not given)",
    "value.type": "TGI",
    "value": "> 100 µM"
  },
  {
    "compound": "CCCCC[C@H]1CC=C2C(=O)C=C[C@@H]2CC=CCCCC(=O)O[C@@H](CCCCC)CC=C2C(=O)C=C[C@@H]2CC=CCCCC(=O)O[C@@H](CCCCC)CC=C2C(=O)C=C[C@@H]2CC=CCCCC(=O)O1",
    "value.type": "TGI",
    "value": "> 8.75 µM"
  },
  {
    "compound": "COc1ccc(N2CN(C)CSC2=S)cc1",
    "value.type": "TGI",
    "value": "66.8 µM"
  },
  {
    "compound": "CCC#CC[C@H](O)C/C=C1/C(=O)C=C[C@@H]1C/C=C\\CCCC(=O)OC",
    "value.type": "TGI",
    "value": "10.2 µM"
  },
  {
    "compound": "N/C(=N\\S(=O)(=O)c1ccc(-c2ccccn2)s1)Nc1ccc(Cl)cc1",
    "value.type": "TGI",
    "value": "47.9 µM"
  },
  {
    "compound": "c1ccc2cc(Cn3cc[n+](Cc4ccc5ccccc5c4)c3)ccc2c1",
    "value.type": "TGI",
    "value": "11.1 µM"
  },
  {
    "compound": "CC/C=C\\C[C@H](O)C/C=C1/C(=O)C=C[C@@H]1C/C=C\\CCCC(=O)OC(C)C",
    "value.type": "TGI",
    "value": "16.1 µM"
  },
  {
    "compound": "Cc1cc(C(=O)Nc2cc(Oc3ccc4nc(NC(=O)C5CC5)cn4n3)ccc2C)n(C)n1",
    "value.type": "TGI",
    "value": "> 10 µM"
  },
  {
    "compound": "CCn1c(-c2ccc(OC)cc2)nc2c1C(=O)c1ccccc1C2=O",
    "value.type": "TGI",
    "value": "> 100 µM"
  },
  {
    "compound": "COc1cccc(Sc2ccc([N+](=O)[O-])c3no[n+]([O-])c23)c1",
    "value.type": "TGI",
    "value": "> 77.7 µM"
  },
  {
    "compound": "CCOC(=O)C1(C#N)C2(C#N)C(N)=NC(ON=C(C)C)(ON=C(C)C)C12C#N (stereo not given)",
    "value.type": "TGI",
    "value": "> 100 µM"
  },
  {
    "compound": "CCC[CH2][Sn]([CH2]CCC)([CH2]CCC)[O]C(=O)C(OC(C)=O)c1ccccc1 (stereo not given)",
    "value.type": "TGI",
    "value": "0.273 µM"
  },
  {
    "compound": "CCO/C(CCn1[nH]c(=O)c(Cl)c(Cl)c1=O)=N\\NC(=O)C(=O)NN",
    "value.type": "TGI",
    "value": "> 100 µM"
  },
  {
    "compound": "Nc1ncnc2c1ncn2C1OC(CO)C(O)C1NS(=O)(=O)c1ccccc1 (stereo not given)",
    "value.type": "TGI",
    "value": "> 100 µM"
  },
  {
    "compound": "O=C(Nc1ccc2ncnc(Nc3ccc(Oc4cccc(F)c4)c(Cl)c3)c2c1)c1ccc(CN2CCOCC2)cc1",
    "value.type": "TGI",
    "value": "> 100 µM"
  },
  {
    "compound": "Cc1nc(N)sc1C(=O)Nc1ncn[nH]1",
    "value.type": "TGI",
    "value": "> 100 µM"
  },
  {
    "compound": "O=C1NC(O)c2ccccc2O1 (stereo not given)",
    "value.type": "TGI",
    "value": "> 100 µM"
  }
]
